# study-system: ABHD6 (Mus musculus (Mouse), UniProt Q8R2Y0)
# Sequence (Q8R2Y0 whole entry): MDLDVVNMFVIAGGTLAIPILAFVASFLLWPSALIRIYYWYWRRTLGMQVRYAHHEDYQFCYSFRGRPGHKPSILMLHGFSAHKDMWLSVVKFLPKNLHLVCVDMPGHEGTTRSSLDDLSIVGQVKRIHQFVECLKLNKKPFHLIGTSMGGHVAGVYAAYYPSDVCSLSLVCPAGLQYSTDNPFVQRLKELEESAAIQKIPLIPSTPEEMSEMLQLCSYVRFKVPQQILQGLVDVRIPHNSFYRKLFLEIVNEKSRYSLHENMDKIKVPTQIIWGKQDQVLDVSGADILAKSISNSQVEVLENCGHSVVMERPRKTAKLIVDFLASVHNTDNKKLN
# test-description: In vitro competitive activity-based protein profiling (mouse brain membrane fraction or cell lysates), ABHD6 band
# Assay type: biochemical
# measurement-conditions: mouse proteome, competitive ABPP
quantity-kind: IC50

Here is how some molecules turned out for IC50.
O=C(OC(C(F)(F)F)C(F)(F)F)N1CCC2(CCCN2Cc2ccc(C(F)(F)F)cc2N2CCOCC2)CC1 [Example 67]	> 1000 nM
O=C(OC(C(F)(F)F)C(F)(F)F)N1CCC2(CCN(Cc3ccc(C(F)(F)F)cc3N3CC4COCC4C3)C2)CC1 (stereo not drawn) [Example 26]	100 to 1000 nM
O=C(OC(C(F)(F)F)C(F)(F)F)N1CCC2(CCCN2Cc2cccc(OCCN3CCOCC3)c2)CC1 [Example 13]	> 1000 nM
O=C(OC(C(F)(F)F)C(F)(F)F)N1CCC2(CCCN2Cc2ccc(C(F)(F)F)cc2N2CC3CCC(C2)O3)CC1 [Example 73]	> 1000 nM
Cc1c(CN2CCCC23CCN(C(=O)OC(C(F)(F)F)C(F)(F)F)CC3)cccc1N1CCCCC1 [Example 84]	> 1000 nM

**Query** # value lookup — system ABHD6 (Mus musculus (Mouse), UniProt Q8R2Y0), readout IC50, item O=C(OC(C(F)(F)F)C(F)(F)F)N1CCC2(CCN(Cc3ccc4c(c3)COC4)C2)CC1 [Example 153]
**Result** < 100 nM

**Query** What do we get for O=C(OC(C(F)(F)F)C(F)(F)F)N1CCC2(CCCN2Cc2ccc(Cl)cc2N2CC3COCC3C2)CC1 (stereo not drawn) [Example 108] ?
**Result** > 1000 nM

**Query** What do we get for O=C(OC(C(F)(F)F)C(F)(F)F)N1CCC2(CCCN2Cc2cc(Cl)cc(N3CCCC3)c2)CC1 [Example 34] ?
**Result** > 1000 nM

**Query** What do we get for O=C(OC(C(F)(F)F)C(F)(F)F)N1CCC2(CCCN2Cc2ccc(Cl)c(N3CCOCC3)c2)CC1 [Example 131] ?
**Result** > 1000 nM

**Query** What do we get for CCc1cc(CN2CCC3(CCN(C(=O)OC(C(F)(F)F)C(F)(F)F)CC3)C2)ccc1F [Example 152] ?
**Result** 100 to 1000 nM

**Query** What do we get for CC(=O)N1CCN(c2cccc(CN3CCCC34CCN(C(=O)OC(C(F)(F)F)C(F)(F)F)CC4)c2Cl)CC1 [Example 114] ?
**Result** > 1000 nM

###

# study-system: FAAH (Mus musculus (Mouse), UniProt O08914)
# Sequence (O08914 whole entry): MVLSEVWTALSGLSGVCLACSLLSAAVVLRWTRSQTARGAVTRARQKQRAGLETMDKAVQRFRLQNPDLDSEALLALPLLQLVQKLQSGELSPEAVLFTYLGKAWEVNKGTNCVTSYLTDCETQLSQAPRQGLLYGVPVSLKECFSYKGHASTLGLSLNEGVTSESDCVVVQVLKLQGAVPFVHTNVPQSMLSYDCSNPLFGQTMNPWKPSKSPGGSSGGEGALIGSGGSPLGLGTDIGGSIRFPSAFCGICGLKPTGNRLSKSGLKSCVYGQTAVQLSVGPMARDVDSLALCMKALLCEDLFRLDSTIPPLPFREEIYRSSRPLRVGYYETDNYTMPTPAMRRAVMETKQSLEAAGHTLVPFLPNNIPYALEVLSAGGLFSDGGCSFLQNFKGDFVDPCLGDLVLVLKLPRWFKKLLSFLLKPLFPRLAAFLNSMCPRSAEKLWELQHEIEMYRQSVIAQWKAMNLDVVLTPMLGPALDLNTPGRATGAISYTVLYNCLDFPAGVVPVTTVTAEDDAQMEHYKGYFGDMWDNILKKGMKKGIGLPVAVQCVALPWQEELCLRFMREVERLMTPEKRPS
# test-description: Mouse brain proteomes from inhibitor treated mice (oral gavage, sacrificed 4 h after administration, ABPP analysis), FAAH
# Type: in vivo, mouse (C57Bl/6J)
# measurement-conditions: 5 mg/kg oral gavage
quantity-kind: FAAH % Inh 5 mg/kg (mouse)

Here is how some compounds turned out for FAAH % Inh 5 mg/kg (mouse).
O=C(OC(C(F)(F)F)C(F)(F)F)N1CCC2(CCCN2Cc2cc(N3CCC3)cc(C(F)(F)F)c2)CC1 [Example 47]	# (# is <25%)
O=C(OC(C(F)(F)F)C(F)(F)F)N1CCC2(CCCN2Cc2cc(Oc3nc4ccccc4s3)cc(C(F)(F)F)c2)CC1 [Example 172]	# (# is <25%)
O=C(OC(C(F)(F)F)C(F)(F)F)N1CCC2(CCCN2Cc2ccc(Cl)cc2N2CCOCC2)CC1 [Example 77]	# (# is <25%)
O=C(OC(C(F)(F)F)C(F)(F)F)N1CCC2(CCCN2Cc2cc(OC3CCOCC3)cc(C(F)(F)F)c2)CC1 [Example 170]	# (# is <25%)
O=C(OC(C(F)(F)F)C(F)(F)F)N1CCC2(CCCN2Cc2ccc(C(F)(F)F)cc2N2CCCC2)CC1 [Example 66]	# (# is <25%)
O=C(OC(C(F)(F)F)C(F)(F)F)N1CCC2(CCN(Cc3cccc(Cl)c3N3CCC(F)CC3)C2)CC1 [Example 65]	# (# is <25%)
O=C(OC(C(F)(F)F)C(F)(F)F)N1CCC2(CCCN2Cc2ccc(N3CCOCC3)c(C(F)(F)F)c2)CC1 [Example 129]	# (# is <25%)
O=C(OC(C(F)(F)F)C(F)(F)F)N1CCC2(CCCN2Cc2ccc(Cl)c(OCCF)c2)CC1 [Example 28]	# (# is <25%)
O=C(OC(C(F)(F)F)C(F)(F)F)N1CCC2(CCCN2Cc2ccc(C(F)(F)F)c(N3CCOCC3)c2)CC1 [Example 133]	# (# is <25%)
CS(=O)(=O)C1CCN(c2cc(C(F)(F)F)ccc2CN2CCCC23CCN(C(=O)OC(C(F)(F)F)C(F)(F)F)CC3)C1 (stereo not shown) [Example 193]	# (# is <25%)

**Query** # value lookup — system FAAH (Mus musculus (Mouse), UniProt O08914), readout FAAH % Inh 5 mg/kg (mouse), item O=C(OC(C(F)(F)F)C(F)(F)F)N1CCC2(CCCN2Cc2ccc(C(F)(F)F)cc2Oc2cccnc2)CC1 [Example 173]
**Result** # (# is <25%)

**Query** What do we get for O=C(O)C1CCN(c2cc(C(F)(F)F)ccc2CN2CCC3(CCN(C(=O)OC(C(F)(F)F)C(F)(F)F)CC3)C2)CC1 [Example 119] ?
**Result** # (# is <25%)

**Query** What do we get for CCN1CCCc2cccc(CN3CCC4(CCN(C(=O)OC(C(F)(F)F)C(F)(F)F)CC4)C3)c21 [Example 71] ?
**Result** # (# is <25%)

**Query** What do we get for N#Cc1ccc(CN2CCCC23CCN(C(=O)OC(C(F)(F)F)C(F)(F)F)CC3)c(N2CCC(C(=O)O)CC2)c1 [Example 249] ?
**Result** # (# is <25%)

**Query** What do we get for O=C(OC(C(F)(F)F)C(F)(F)F)N1CCC2(CCCN2Cc2ccc(Cl)cc2OCCF)CC1 [Example 30] ?
**Result** # (# is <25%)

**Query** What do we get for O=C(OC(C(F)(F)F)C(F)(F)F)N1CCC2(CCCN2Cc2ccc(C(F)(F)F)cc2N2CCN(CCF)CC2)CC1 [Example 20] ?
**Result** # (# is <25%)

**Query** What do we get for CC(=O)NC1CCN(c2cc(Cl)ccc2CN2CCCC23CCN(C(=O)OC(C(F)(F)F)C(F)(F)F)CC3)CC1 [Example 104] ?
**Result** # (# is <25%)

**Query** What do we get for CC(=O)NC1CCN(c2cc(C(F)(F)F)ccc2CN2CCCC23CCN(C(=O)OC(C(F)(F)F)C(F)(F)F)CC3)CC1 [Example 93] ?
**Result** # (# is <25%)

**Query** What do we get for O=C(OC(C(F)(F)F)C(F)(F)F)N1CCC2(CCCN2Cc2cc(OC(F)(F)F)cc(N3CCOCC3)c2)CC1 [Example 37] ?
**Result** # (# is <25%)

**Query** What do we get for Cc1c(CN2CCCC23CCN(C(=O)OC(C(F)(F)F)C(F)(F)F)CC3)cccc1N1CC2CCC(C1)O2 [Example 86] ?
**Result** # (# is <25%)

**Query** What do we get for CC(=O)N1CCN(c2cc(C(F)(F)F)ccc2CN2CCCC23CCN(C(=O)OC(C(F)(F)F)C(F)(F)F)CC3)CC1 [Example 88] ?
**Result** # (# is <25%)

**Query** What do we get for CC(=O)N1CCN(c2cc(Cl)ccc2CN2CCCC23CCN(C(=O)OC(C(F)(F)F)C(F)(F)F)CC3)CC1 [Example 99] ?
**Result** # (# is <25%)

**Query** What do we get for O=C(OC(C(F)(F)F)C(F)(F)F)N1CCC2(CCN(Cc3ccc(C(F)(F)F)cc3N3CCCCC3)C2)CC1 [Example 23] ?
**Result** # (# is <25%)

**Query** What do we get for O=C(OC(C(F)(F)F)C(F)(F)F)N1CCC2(CCCN2Cc2ccc(Cl)c(C(F)(F)F)c2)CC1 [Example 184] ?
**Result** # (# is <25%)

**Query** What do we get for CC1(C(=O)O)CN(c2cc(CN3CCCC34CCN(C(=O)OC(C(F)(F)F)C(F)(F)F)CC4)cc(C(F)(F)F)c2)CCO1 (stereo not shown) [Example 195] ?
**Result** # (# is <25%)

**Query** What do we get for Cc1cc(CN2CCCC23CCN(C(=O)OC(C(F)(F)F)C(F)(F)F)CC3)ccc1C(F)(F)F [Example 177] ?
**Result** # (# is <25%)
